# System: MDCK
# experiment.description: Cytotoxicity against HGF-stimulated […] MDCK cells at 50 to 100 fold higher biologically active concentration
# Assay type: cell-based
property: Activity

>>> df
                              smiles_record  subject_of_test  observed_measurement
0  O=C(Cc1cc(C(F)(F)F)cc(C(F)(F)F)c1)N[C@@H](Cc1ccccc1)C(=O)Nc1ccc(-c2cn3c(n2)sc2ccccc23)cc1             MDCK                 Toxic
1  Cc1cc(C)cc(CC(=O)N[C@@H](Cc2ccccc2)C(=O)Nc2ccc(-c3cn4c(n3)sc3ccccc34)cc2)c1             MDCK                 Toxic
2  Cc1cc(C)cc(CC(=O)N[C@H](Cc2ccccc2)C(=O)Nc2ccc(-c3cn4c(n3)sc3ccccc34)cc2)c1             MDCK                 Toxic

###

# experiment.description: Chemical stability in chloroform
# Assay type: physicochemical
property: Stability

                              smiles_record   property  observed_measurement
0  O=C(Cc1cc(F)cc(F)c1)NCCC(=O)Nc1ccc(-c2cn3c4c(sc3n2)CN(Cc2ccccc2)CC4)cc1  Stability                Stable
1  Cc1cc(C)cc(CC(=O)N[C@H](Cc2ccccc2)C(=O)Nc2ccc(-c3cn4c5c(sc4n3)CN(Cc3ccccc3)CC5)cc2)c1  Stability                Stable
2  Cc1ccc(CC(=O)N[C@@H](Cc2ccccc2)C(=O)Nc2ccc(-c3cn4c(n3)sc3ccccc34)cc2)cc1  Stability                Stable
3  Cc1cc(C)cc(CC(=O)N[C@H](Cc2ccccc2)C(=O)Nc2ccc(-c3cn4c(n3)sc3ccccc34)cc2)c1  Stability                Stable
4  Cc1cc(C)cc(CC(=O)N[C@@H](Cc2ccccc2)C(=O)Nc2ccc(-c3cn4c(n3)sc3ccccc34)cc2)c1  Stability                Stable
5  Cc1ccc(C[C@H](NC(=O)Cc2cc(C(F)(F)F)cc(C(F)(F)F)c2)C(=O)Nc2ccc(-c3cn4c(n3)sc3ccccc34)cc2)cc1  Stability                Stable

Now look at this one.
Prompt: # input compound: C[C@@H](NC(=O)Cc1cc(F)cc(F)c1)C(=O)Nc1ccc(-c2cn3c4c(sc3n2)CCN(Cc2ccccc2)C4)cc1 ; wanted: its Stability
Completion: Stable

###

# experiment.description: Chemical stability in DMSO
# Assay type: physicochemical
property: Stability

Use the examples below as a reference point.
                              smiles_record  observed_measurement
0  O=C(Cc1cc(F)cc(F)c1)N[C@@H](CS)C(=O)Nc1ccc(-c2cn3c4c(sc3n2)CN(Cc2ccccc2)CC4)cc1                Stable
1  O=C(Cc1cc(F)cc(F)c1)NCCC(=O)Nc1ccc(-c2cn3c4c(sc3n2)CN(Cc2ccccc2)CC4)cc1                Stable
2  Cc1ccc(C[C@H](NC(=O)Cc2cc(C)cc(C)c2)C(=O)Nc2ccc(-c3cn4c(n3)sc3ccccc34)cc2)cc1                Stable
3  Cc1ccc(C[C@H](NC(=O)Cc2cc(C(F)(F)F)cc(C(F)(F)F)c2)C(=O)Nc2ccc(-c3cn4c(n3)sc3ccccc34)cc2)cc1                Stable
4  Cc1cc(C)cc(CC(=O)N[C@@H](Cc2ccccc2)C(=O)Nc2ccc(-c3cn4c5c(sc4n3)CCCC5)cc2)c1                Stable
5  Cc1cc(C)cc(CC(=O)N[C@H](Cc2ccccc2)C(=O)Nc2ccc(-c3cn4c(n3)sc3ccccc34)cc2)c1                Stable
6  O=C(Cc1cc(C(F)(F)F)cc(C(F)(F)F)c1)N[C@H](Cc1ccccc1)C(=O)Nc1ccc(-c2cn3c(n2)sc2ccccc23)cc1                Stable
7  C[C@@H](NC(=O)Cc1cc(F)cc(F)c1)C(=O)Nc1ccc(-c2cn3c4c(sc3n2)CCN(Cc2ccccc2)C4)cc1                Stable

Prompt: Find the recorded Stability belonging to O=C(Cc1cc(C(F)(F)F)cc(C(F)(F)F)c1)N[C@@H](Cc1ccccc1)C(=O)Nc1ccc(-c2cn3c(n2)sc2cc(Br)ccc23)cc1 and report it.
Completion: Stable

Prompt: Entry under review: C[C@H](NC(=O)Cc1cc(F)cc(F)c1)C(=O)Nc1ccc(-c2cn3c4c(sc3n2)CCN(Cc2ccccc2)C4)cc1 . Reported Stability?
Completion: Stable

Prompt: Form field: reported Stability of O=C(Cc1cc(C(F)(F)F)cc(C(F)(F)F)c1)N[C@@H](Cc1ccccc1)C(=O)Nc1ccc(-c2cn3c(n2)sc2ccccc23)cc1
Completion: Stable

Prompt: Give the measured Stability of Cc1ccc(CC(=O)N[C@@H](Cc2ccccc2)C(=O)Nc2ccc(-c3cn4c(n3)sc3ccccc34)cc2)cc1 .
Completion: Stable

Prompt: Look up Stability: O=C(Cc1cc(F)cc(F)c1)N[C@@H](Cc1ccccc1)C(=O)Nc1ccc(-c2cn3c(n2)sc2ccccc23)cc1
Completion: Stable
